assay: The drug is tested on Z-001 corresponding to mouse gut metagenome with ENA study accession number: PRJEB37062 and ENA sample accession number: ERS12561801 for biotransformation under anaerobic condition. The drug concentrations were measured over 9 timepoints collected between 0 and 24 hours of incubation by liquid-chromatography-coupled mass spectrometry (LC–MS); details: 2 µM; also: call rule not given here

# Compound, Bacterial Biotransformation
rows = [
    ("O=C(O)COCCN1CCN(C(c2ccccc2)c2ccc(Cl)cc2)CC1 (centres undefined) [CETIRIZINE]", "Compound NOT metabolized"),
    ("CS(=O)(=O)O.OC(CCN1CCCCC1)(c1ccccc1)c1ccccc1 [PRIDINOL METHANESULFONATE]", "Compound NOT metabolized"),
    ("CC(C)(C#N)c1cc(Cn2cncn2)cc(C(C)(C)C#N)c1 [ANASTROZOLE]", "Compound NOT metabolized"),
]

====

conditions: human gut metagenome, 24 h, 2 µM
Quantity measured: Bacterial Biotransformation

Reference set, count: 5
# Molecule, Measurement
measured = [
    ("C=CCN1CC[C@]23c4c5ccc(O)c4O[C@H]2C(=O)CC[C@@]3(O)[C@H]1C5 [NALOXONE]", "Compound NOT metabolized"),
    ("CCN(CC)CCOCCOC(=O)C1(c2ccccc2)CCCC1.O=C(O)CC(O)(CC(=O)O)C(=O)O [CARBETAPENTANE CITRATE]", "Compound metabolized"),
    ("CCCC1O[C@@H]2C[C@H]3[C@@H]4CCC5=CC(=O)C=C[C@]5(C)[C@H]4[C@@H](O)C[C@]3(C)[C@]2(C(=O)CO)O1 (stereo partly specified) [BUDESONIDE]", "Compound metabolized"),
    ("CC[C@@H](CO)NC(=O)[C@@H]1C=C2c3cccc4c3c(cn4C)C[C@H]2N(C)C1.O=C(O)/C=C\\C(=O)O [METHYSERGIDE MALEATE]", "Compound NOT metabolized"),
    ("CCN(CC)C(C)CN1c2ccccc2Sc2ccccc21 (stereo unspecified) [ETHOPROPAZINE]", "Compound metabolized"),
]

Quick request: Bacterial Biotransformation for each listed item, please.
1. CC(=O)O[C@]1(C(C)=O)CC[C@H]2[C@@H]3C=C(Cl)C4=CC(=O)[C@@H]5C[C@@H]5[C@]4(C)[C@H]3CC[C@@]21C [CYPROTERONE ACETATE]
2. Cc1ccc(/C(=C\CN2CCCC2)c2ccccn2)cc1 [TRIPROLIDINE]
3. CN1CCc2cccc3c2[C@H]1Cc1ccc(O)c(O)c1-3 [APOMORPHINE]
4. O=C1[C@H](CC[C@H](O)c2ccc(F)cc2)[C@@H](c2ccc(O)cc2)N1c1ccc(F)cc1 [EZETIMIBE]
5. CC(C)NCC(O)COc1ccc(COCCOC(C)C)cc1.CC(C)NCC(O)COc1ccc(COCCOC(C)C)cc1.O=C(O)/C=C/C(=O)O (stereo unspecified) [BISOPROLOL FUMARATE]
6. CCN(CC)CC#CCOC(=O)C(O)(c1ccccc1)C1CCCCC1.Cl (stereo unspecified) [OXYBUTYNIN CHLORIDE]

1: Compound metabolized; 2: Compound NOT metabolized; 3: Compound NOT metabolized; 4: Compound metabolized; 5: Compound NOT metabolized; 6: Compound metabolized

====

assay: The drug is tested on Z-010 corresponding to metagenome with ENA study accession number: PRJEB37062 and ENA sample accession number: ERS12561810 for biotransformation under anaerobic condition. The drug concentrations were measured over 9 timepoints collected between 0 and 24 hours of incubation by liquid-chromatography-coupled mass spectrometry (LC–MS); settings: 2 µM
Quantity measured: Bacterial Biotransformation

Reference set, count: 5
# Molecule, Bacterial Biotransformation
records = [
    ("COC(=O)Nc1nc2ccc(C(=O)c3ccccc3)cc2[nH]1", "Compound metabolized"),
    ("CN(C)C(=O)C(CCN1CCC(O)(c2ccc(Cl)cc2)CC1)(c1ccccc1)c1ccccc1 [LOPERAMIDE]", "Compound metabolized"),
    ("OC(Cn1cncn1)(Cn1cncn1)c1ccc(F)cc1F", "Compound NOT metabolized"),
    ("OCCOCCN1CCN(C2=Nc3ccccc3Sc3ccccc32)CC1", "Compound NOT metabolized"),
    ("Cc1ccc(/C(=C\\CN2CCCC2)c2ccccn2)cc1", "Compound NOT metabolized"),
]

Quick request: Bacterial Biotransformation for each listed item, please.
1. C#C[C@]1(O)CC[C@H]2[C@@H]3CCC4=Cc5oncc5C[C@]4(C)[C@H]3CC[C@@]21C
2. COc1c2occc2cc2ccc(=O)oc12
3. CN1C(=O)CC(C)(c2ccccc2)C1=O (stereo not given) [METHSUXIMIDE]
4. Nc1nc2ccc(OC(F)(F)F)cc2s1
5. Cc1ccccc1N1C(=O)c2cc(S(N)(=O)=O)c(Cl)cc2NC1C (stereo not given)

Compound metabolized
Compound metabolized
Compound NOT metabolized
Compound metabolized
Compound NOT metabolized

Quick request: Bacterial Biotransformation for each listed item, please.
1. CC(Oc1c(Cl)cccc1Cl)C1=NCCN1 (stereo not given)
2. CC(C)(C)NC[C@H](O)COc1ccccc1C1CCCC1.CC(C)(C)NC[C@H](O)COc1ccccc1C1CCCC1.O=S(=O)(O)O [PENBUTOLOL SULFATE]
3. CC(=O)OCC(=O)[C@@]1(O)[C@@H](C)C[C@H]2[C@@H]3CCC4=CC(=O)C=C[C@]4(C)[C@@]3(F)[C@@H](O)C[C@@]21C [BETAMETHASONE ACETATE]
4. C[C@@H](CO)NC(=O)[C@@H]1C=C2c3cccc4[nH]cc(c34)C[C@H]2N(C)C1.O=C(O)/C=C\C(=O)O [ERGONOVINE MALEATE]
5. CCC(=O)NCC[C@@H]1CCc2ccc3c(c21)CCO3
6. CC(C)NCC(O)c1ccc(NS(C)(=O)=O)cc1 (stereo not given)

1: Compound NOT metabolized; 2: Compound metabolized; 3: Compound metabolized; 4: Compound NOT metabolized; 5: Compound metabolized; 6: Compound NOT metabolized

====

test: The drug is tested on WLS-086 corresponding to human gut metagenome with ENA study accession number: PRJEB37062 and ENA sample accession number: ERS12561752 for biotransformation under anaerobic condition. The drug concentrations were measured over 9 timepoints collected between 0 and 24 hours of incubation by liquid-chromatography-coupled mass spectrometry (LC–MS); settings: 2 µM
Where a SMILES comes first, the peptide text is derived from it. [ ]: non-standard residue; d: D form. pGlu = O=C1CC[C@@H](C(=O)O)N1; Thz = O=C(O)[C@@H]1CSCN1
Quantity measured: Bacterial Biotransformation

# Compound, Bacterial Biotransformation
rows = [
    ("CN1C(C(=O)Nc2ccccn2)=C(O)c2sccc2S1(=O)=O [TENOXICAM]", "Compound NOT metabolized"),
    ("C=CCN1CC[C@]23c4c5ccc(O)c4O[C@H]2C(=O)CC[C@@]3(O)[C@H]1C5 [NALOXONE]", "Compound NOT metabolized"),
    ("CCC(COC(=O)c1cc(OC)c(OC)c(OC)c1)(c1ccccc1)N(C)C.O=C(O)/C=C\\C(=O)O (stereo not drawn)", "Compound NOT metabolized"),
    ("CCCCC(=O)N(Cc1ccc(-c2ccccc2-c2nnn[nH]2)cc1)[C@H](C(=O)O)C(C)C", "Compound metabolized"),
    ("CS(=O)(=O)O.OC(CCN1CCCCC1)(c1ccccc1)c1ccccc1 [PRIDINOL METHANESULFONATE]", "Compound metabolized"),
]

Quick request: Bacterial Biotransformation for each listed item, please.
1. CC(C)NCC(O)c1ccc(NS(C)(=O)=O)cc1 (stereo not drawn) [SOTALOL]
2. COc1ccc2[nH]c([S+]([O-])Cc3ncc(C)c(OC)c3C)nc2n1 (stereo not drawn) [TENATOPRAZOLE]
3. CC(CN1c2ccccc2Sc2ccccc21)N(C)C (stereo not drawn) [PROMETHAZINE]
4. CCc1nc(N)nc(N)c1-c1ccc(Cl)cc1 [PYRIMETHAMINE]
5. Clc1ccc(Cn2c(CN3CCCC3)nc3ccccc32)cc1 [CLEMIZOLE]
6. CCC(=O)NCC[C@@H]1CCc2ccc3c(c21)CCO3 [RAMELTEON]
7. CCOC(=O)[C@H](CCc1ccccc1)N[C@@H](C)C(=O)N1[C@H](C(=O)O)C[C@H]2CCCC[C@@H]21 [TRANDOLAPRIL]
8. O=C1CC[C@@H](C(=O)N2CSC[C@H]2C(=O)O)N1 [PIDOTIMOD] ([pGlu]-[Thz]-OH)

["Compound NOT metabolized", "Compound metabolized", "Compound metabolized", "Compound metabolized", "Compound metabolized", "Compound metabolized", "Compound metabolized", "Compound NOT metabolized"]

Quick request: Bacterial Biotransformation for each listed item, please.
1. C#C[C@]1(O)CC[C@H]2[C@@H]3CCC4=Cc5oncc5C[C@]4(C)[C@H]3CC[C@@]21C [DANAZOL]
2. CNS(=O)(=O)Cc1ccc2[nH]cc(CCN(C)C)c2c1.O=C(O)CCC(=O)O [SUMATRIPTAN SUCCINATE]
3. CC(O)(CS(=O)(=O)c1ccc(F)cc1)C(=O)Nc1ccc(C#N)c(C(F)(F)F)c1 (stereo not drawn) [BICALUTAMIDE]
4. COc1c2occc2cc2ccc(=O)oc12 [METHOXSALEN]
5. CN/C(=N/CCSCc1nc[nH]c1C)NC#N [CIMETIDINE]

1. Compound metabolized
2. Compound metabolized
3. Compound NOT metabolized
4. Compound metabolized
5. Compound metabolized

meta.source: ChEMBL document CHEMBL5724914
